assay: yeast display, Sf9 membrane polyspecificity reagent, FACS + sequencing; frameworks hold sequencing errors
experimental.endpoint: polyreactivity (PSR sort gate)

- QVQLEESGGGLVQAGGSLRLSCAASGLILRWNAMGWYRQAPGKERELVATINRGGSTNYADSVKGRFTISRDNAKNTVYLQMNSLKPEDTAVYYCYKARTSQYHHTYWRTYGYWGPGTQVTVSS: low polyreactivity
- QVQLVESGGGLVQAGGSLRLSCAASGFTLTRNAMGCYRQAPGKERELVAAISWSGGTTYYADSVKGRFTISRDNAKNTVYLQMNSLKPEDTAVYYCNTASWRAQYYYWGQGTQVTVSS: high polyreactivity
- QVQLVESGGGLVQAGGSLRLSCAASGSTFRGYTMGWYRQAPGKERELVATISYRSGSTSYADSVKGRFTISRDNAKNTVYLQMNSLKPEDTAVYYCNRVYSKPRYYYWGQGTQVTVSS: high polyreactivity
- QVQLVESGGGLVQAGGSLRLSCAASGSTFAIYAMGWYRQAPGKERELVAAITRGSTSYADSVKGRFTISRDNAKNTVYLQMNSLKPEDTAVYYCAADSSRYGVIRDFDYWGQGTQVTVSS: high polyreactivity

Record request: polyreactivity (PSR sort gate) value, item "QVKLVESGGGLVQAGGSLRLSCAASGSTFSSYAMGWYRQAPGKERELVAAISSSGGTSTYADSVKGRFTISRDNAKNTVYLQMNSLKPEDTAVYYCAARQDRLLRDYRHDYWGQGTQVTVSS"
high polyreactivity

Record request: polyreactivity (PSR sort gate) value, item "QVQLVESGRGLVQAGGSLRLSCAASGSTFAGYVMGWYRQAPGKERELVAAISGRGGNTYYADSVKGRFTISRDNAKNTVYIQINSLKPADTAVYYCAANLSRRYGYWGQGTQVTVSS"
high polyreactivity

Record request: polyreactivity (PSR sort gate) value, item "QVQLVESGGGLVHAGGSLRLSCAAYGSTFVRNAMGCYRQAPGKERELVAAITSRGGSTYYADSVKGRFTISRDNAKNTVYLQMNSLKPEDTAVYYCAARFGVKRGQYDYWGQGTQVTVSS"
high polyreactivity

Record request: polyreactivity (PSR sort gate) value, item "QVQLVESGGGLVQAGGSLRLSCAASGIIFYYYAMGWYRQAPGKERELVAAISTSGGRTYYADSVKGRFTISRDNAKNTVYLQMNSLKPEDTAVYYCNTKVISRTSERRGNGFTRYDYWGQGTQVTVSS"
low polyreactivity

Record request: polyreactivity (PSR sort gate) value, item "QVQLVESGGGLVQAGGSLRLSCAASGSIFTSNVMGWYRPAPGKERELVAAITITGTTNYADSVKGRFTISRDNAKNTVYLQMNSLIPVDTAVYYCAKDPVDLSPADWRADYDYWGQGTQVTVSS"
low polyreactivity

Record request: polyreactivity (PSR sort gate) value, item "QVQLVESGGGLVQAGGSLRLSCAASGSIFGTYAMGWYRQAPGKERELVAAITGRDGITYADSVKGRFTISCDNAKNTVYLQMNSLKPEDTAVYYCAAVSHGVYYQYRRRYYSWGQGTQVTVSS"
high polyreactivity

Record request: polyreactivity (PSR sort gate) value, item "QVQLVESGGGLVQAGGSLRLSCAASGITSNSYAMGWYRQAPGKERELVATITSGGSTNYADSVKGRFTISRDNAKNSVYLQMNSLKPEDTAVYYCNREDWLPTQYDYWGQGTQVTVSS"
low polyreactivity

Record request: polyreactivity (PSR sort gate) value, item "QVQLVESAGGLVQAGGSLRLSCAASGFIFRFNAMGWYRQAPGKERELVAAISWSGSSTYYADSVKGRFTISRDNAKNTVYLQMNSLKPEDTAVYYCATSAFYYKIVKGDFYYWGQGTQVTVSS"
high polyreactivity

====

assay: yeast display, Sf9 membrane polyspecificity reagent, FACS + sequencing; frameworks hold sequencing errors
experimental.endpoint: polyreactivity (PSR sort gate)

Some entries whose results are on file:
• QVQLVESGGGLVQAGGSLRLSCAASGSTFEFYAMGWYRQAPGKERELVAAIWRGGSTHYADSVKGRFTISRDNAKNTVYLQMNSLKPEDTAVYYCAASPYIFWRFEYWGQGTQVTVSS = low polyreactivity
• QVQLVESGGGLFQAGRSLRISCAASGFIFSQNTMGWYRQAPGKEWELVAAISKSRGTTYYADSVKGRYTITRDNAKNTVYLQMYSLKPEDTAVYYCAARIQWPTWSLYYYWGQGTQVTVSS = high polyreactivity
• QVQLVESGGGLVQAGGSLRLSCAASGFIFYHYAMGWYRQAPGKARELVAAISGRGGSTYYADSVKGRFTISRDNAKNTVYLQMNSLKPEDTAVYYCATDRQRADYYWGQGTQVTVSS = high polyreactivity
• QFQLVESGGGLVQAGGSLRLSCAASGSIFKRYAMGWYRQAAGKERELVAAISSRGGNTYYADSVKGRFTISRDNAKNTVYLQMNSLKPEDTAVYYCAAYLWKSKRKLDYWGQGTQVTVSS = high polyreactivity
• QVQLVESGGGLVQAGGSLRLSCAASGFIFSRYAMGWARQAPGKERELVAAIRFSGSMTYYADSVKGRFTISRDTAKNTVYLQMNSLKPEDTAVYYCAAALTYFKRVYYWGQGTQVTVSS = high polyreactivity
• QVQLVESGGGLVQAGGSLRLSCAPSGRIFAGYAMGWYRQAHGKERELVAAISWRGTSTYYADSVKGRFTISRDNAKNTVYLQMNSLKPEDTAVYYCAARYTKGMYYWGQGTQVTVSS = high polyreactivity
• QVQLGESGGGLVQAGGTLRLSCAAYGFIFGIYDMGSYRQAPGKERELVAAITWDGDTTYYADSVKGRFTISRDNAKNTVYLQMNSLKPEDTAVFYCAVDDSRAYPRPYHWVEYYYWGQGTQVTVSS = low polyreactivity
• QVQLVESGGGLVQAGGSLRLSCAASGSIFPQYAMGWYRQAPGKERELVAAISWSGGRTYYADSVKGRFTISRDNAKNTVYIQMNSLKPEDTAVYYCNRLYRRWYGREDDYWGQGTQVTVSS = high polyreactivity

Record request: polyreactivity (PSR sort gate) value, item "QVQLVESGGGLVQAGGSLRLSCAPSGSTFFLYVMGWYRQAPGKEREWVAAITSGGRTYYADSVKGRFTISRDNAKNTVYLQMNSLKREDTAVYYCAADVRRVRVGKYDYWGQGPQVTVSS"
high polyreactivity

Record request: polyreactivity (PSR sort gate) value, item "QVQHVESGGGLVQAGGSLRLSCPASGIIIYQYALGSYRQAPGKERELVAAISSGVNTYYADSVKGRFTISRDNAKNTVYLQMNSLKPEDTAVYYCAARLTFGYLRSKFYYWGQGTQVTVSS"
high polyreactivity

Record request: polyreactivity (PSR sort gate) value, item "QVQLVESGGGLVQAGGILRLSCAASGRTFAPYTMGWYRQAPGKERELVAVITRRDGRTYYADSVKGRFTISRDNAKNTFYLQMKSLKPEDNAVYYCCFLPADWYRPVRYLRTDSDYWGQGTKVTVSS"
low polyreactivity

====

assay: yeast display, Sf9 membrane polyspecificity reagent, FACS + sequencing; frameworks hold sequencing errors
experimental.endpoint: polyreactivity (PSR sort gate)

• QVQLVESGGGLVQAGGSLRLSCAASGSTLEPNAMGWYRQAPGKERELVAAITIGGSTYYADSVKGRFTISRDNAKNTVYLQMNSLKPEDTAVYYCAAKSTVQRRRHTNYDYWGQGTQVTVSS = high polyreactivity
• QVQLVESGGGLVQAGGSLRLSCAASGRTFGWYTMGRYRQAPGKERELVAGISSSGGSTYYADSVKGRFTISRDNAKNTVYLQMNSLKPEDTAVYYCARETYPHGLYYRPYDYWGQGTQVTVSS = low polyreactivity
• QVQLVDSGGGLVQAGGSLRESCAASGSTFYYNDMGWSRQAPGKDRELVAAIRTSGSTNYAESVKGRFTLSRDNAKNTVYLQMNSLKPEDTEVYYCNAVVRHWFPGWYGRGDDYWGQGTQVTVSS = low polyreactivity
• QVQLVESGGGLVQAGGSLRLSCAASGRIFTYMGWYRQAPGKERELVAGISWRGTSTYYADSVKGRFTISRDNAKNTVYLQMNSLKPEDTAVYYCAAPWAYHVRGDYWGQGTQVTVSS = low polyreactivity
• QVQLVESGGGLVKAGGSLRLSCAASGRTLRSYDMGWYRQAPGKEREVVAAITRTGGDTYYADSVKGRFTISRDNAKNTVYLQMNRLKPDDTAVYYCAAQRYRGYDYWGQGTQVTVSS = high polyreactivity
• QVQLVESGGGLVQAGGSLRLSCAASGFTFGLYGMGWYRQAPGKERELVAAISSSGGDTYYADSVKGRFTISRDNAKNTVYLQMNSLKPEDTAVYYCAATADWATYDYWGQGTQVTVSS = low polyreactivity

Record request: polyreactivity (PSR sort gate) value, item "QVQLVESVRGFDQAGVSLRLSCAASGSIFYHNAKGLYRQATVTERELVGAITSDGSTYYADSVKGRFTISRDNGKNTVYLLMNSLKPEDTAVFYCAAEYYGHRYDYLGQGTQVTVSS"
low polyreactivity

Record request: polyreactivity (PSR sort gate) value, item "QVQLGESGGGLVQAGGSLRLSCAASGSTFARYAMGWYRQAPGKERELVAVIRSGGSRNYADSVKGRFTISRDNAKNTVYLQMNSLKPEDTAGAADQWTIHRWATYGYWGQGTQVTVSS"
low polyreactivity

Record request: polyreactivity (PSR sort gate) value, item "QVQLVESGGGLVQAGGSLRLSCAASGRTFKYNAMGWYRQAPGKRKELVAAISSGGSTYYADSVKGRFTISRDNAKNTVYLQMNSLKPEDTAVYYCAVRNTKSYWFGYWGQGTQVTVSS"
high polyreactivity

Record request: polyreactivity (PSR sort gate) value, item "QVQLVESGGGLVQAGGSLRLSCAASGRIFRYYAMGWYRQATGKERELVASISSGGSTNYADSVKGRCTISRDNAKNTVYLQMNSLKPEDTAVYYCNAVLCFRAVYEYDYWGQGTQVTVSS"
high polyreactivity

Record request: polyreactivity (PSR sort gate) value, item "QVQLVESGGGLVQAGGSLRLSCAASGRTFHLYAIGWSRQAAGKERELVAAINSGGRTNYADSVKGRFTISLDNAKNTVYLQLNSLKPEDTAVYYCAARANPYVLKYYYWGQGSQVTVSS"
high polyreactivity
